STUDY_TARGET: FPRL1 (Homo sapiens, UniProt P25090)
Sequence (P25090 whole entry): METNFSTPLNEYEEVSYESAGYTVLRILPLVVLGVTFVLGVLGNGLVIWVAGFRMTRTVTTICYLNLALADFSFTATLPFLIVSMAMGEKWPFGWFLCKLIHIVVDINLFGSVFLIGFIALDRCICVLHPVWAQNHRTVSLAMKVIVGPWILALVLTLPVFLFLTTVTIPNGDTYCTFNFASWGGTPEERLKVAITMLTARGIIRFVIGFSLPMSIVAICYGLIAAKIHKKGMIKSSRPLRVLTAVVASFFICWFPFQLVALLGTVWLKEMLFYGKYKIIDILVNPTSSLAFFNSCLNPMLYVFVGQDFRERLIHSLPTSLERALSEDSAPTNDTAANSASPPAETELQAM
ASSAY_DETAILS: [35S]GTPγS binding assay, membranes of transiently transfected CHO cells
Type: biochemical
Set-up: Full-Length Cloning of Human GPCRs; expressed in transfected cells; host or cells: CHO-K1 cells, transient, pCMV; plasma membranes
RUN_CONDITIONS: FIG. 3 panel B, read-out: EC50 at FPRL1, promoted [35S]GTPγS binding
pEC50: −log10 of the molar value. Where no end group is shown, it is not given here.
VALUE_KIND: pEC50

I have this sequence here, MAPRGFSCLLLLTGEIDLPVKRRA [[Gly14]-Humanin] , and I need its recorded pEC50.
~5.82

---

STUDY_TARGET: human FPRL2 (Homo sapiens, UniProt P25089)
Sequence (P25089 with tags, fused parts or gaps): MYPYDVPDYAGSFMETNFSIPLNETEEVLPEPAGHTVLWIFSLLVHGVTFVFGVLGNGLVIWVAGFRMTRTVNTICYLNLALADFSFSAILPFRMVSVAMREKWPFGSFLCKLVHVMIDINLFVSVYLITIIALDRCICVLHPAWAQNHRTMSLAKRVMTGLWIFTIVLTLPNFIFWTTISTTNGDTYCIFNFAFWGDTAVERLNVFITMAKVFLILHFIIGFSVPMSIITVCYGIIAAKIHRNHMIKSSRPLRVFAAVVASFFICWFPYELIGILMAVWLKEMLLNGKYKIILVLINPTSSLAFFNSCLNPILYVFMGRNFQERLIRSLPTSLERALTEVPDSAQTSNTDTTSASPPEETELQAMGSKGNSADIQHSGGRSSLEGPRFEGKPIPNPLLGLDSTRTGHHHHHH
ASSAY_DETAILS: [35S]GTPγS binding assay, membranes of transiently transfected CHO cells
Type: biochemical
Set-up: expressed in transfected cells; host or cells: CHO-K1 cells, transient, pCMV; plasma membranes
RUN_CONDITIONS: FIG. 3 panel A; transiently transfected CHO cells; read-out: EC50 at FPRL2, promoted [35S]GTPγS binding
pEC50: −log10 of the molar value. Where no end group is shown, it is not given here.
VALUE_KIND: pEC50

I have this sequence here, MAPRGFSCLLLLTGEIDLPVKRRA [[Gly14]-Humanin] , and I need its recorded pEC50.
~7.14
